FYI, the data here is from patent US20160145247A1.

Biological target: factor D (Homo sapiens, UniProt P00746)
Construct: made in house; host or cells: E. coli
Sequence (P00746 26-253): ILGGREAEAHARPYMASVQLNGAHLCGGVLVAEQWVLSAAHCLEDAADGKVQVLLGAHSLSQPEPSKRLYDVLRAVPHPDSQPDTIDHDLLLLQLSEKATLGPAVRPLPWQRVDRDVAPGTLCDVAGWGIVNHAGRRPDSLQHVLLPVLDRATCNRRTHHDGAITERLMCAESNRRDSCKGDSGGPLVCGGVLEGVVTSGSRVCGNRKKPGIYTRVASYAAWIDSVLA
Experiment: factor D inhibition assay of Biological Example 2
Format: biochemical
Measure: IC50 (nM)

Molecule: C[C@@H](N)c1cccc(-c2cc(COc3ccccc3CC(=O)O)cc(NCC3(C)CC3)c2)c1F [Example 227]
Target under test: factor D (Homo sapiens, UniProt P00746)
Reading unit: nM
IC50: 10
--
Molecule: C[C@H](N)c1cccc(-c2cc(COc3ccccc3CC(=O)O)cc(OCC3(C)CC3)c2)c1F [Example 260]
Target under test: factor D (Homo sapiens, UniProt P00746)
Reading unit: nM
IC50: 39
--
Molecule: N[C@H](CO)c1cccc(-c2cc(COc3ccccc3CC(=O)O)cc(C(F)(F)F)c2)c1 [Example 114-B]
Target under test: factor D (Homo sapiens, UniProt P00746)
Reading unit: nM
IC50: 6
--
Molecule: NCc1cc(F)cc(-c2cc(NCC3CCOC3)cc(C(=O)Nc3ccccc3CC(=O)O)c2)c1 (stereo not drawn) [Example 79-A]
Target under test: factor D (Homo sapiens, UniProt P00746)
Reading unit: nM
IC50: 5

(a) C[C@@H](N)c1cccc(-c2cc(C#Cc3ccn(C)n3)cc(COc3ccccc3CC(=O)O)c2)c1F [Example 218-G]
(b) NCc1cccc(-c2cc(COc3ccccc3CC(=O)O)cc(NCC3CCCO3)c2F)c1 (racemic) [Example 156-B]
[Q] Pick one, a or b : lowest reported IC50. Could you answer with the label of the item you picked?
[A] b
(b: 2 nM, a: 6 nM)
